These data points were gathered from ChEMBL document CHEMBL4819068.

# systemName: Cholinesterase (Equus caballus) (UniProt P81908)
# Sequence (P81908 whole entry): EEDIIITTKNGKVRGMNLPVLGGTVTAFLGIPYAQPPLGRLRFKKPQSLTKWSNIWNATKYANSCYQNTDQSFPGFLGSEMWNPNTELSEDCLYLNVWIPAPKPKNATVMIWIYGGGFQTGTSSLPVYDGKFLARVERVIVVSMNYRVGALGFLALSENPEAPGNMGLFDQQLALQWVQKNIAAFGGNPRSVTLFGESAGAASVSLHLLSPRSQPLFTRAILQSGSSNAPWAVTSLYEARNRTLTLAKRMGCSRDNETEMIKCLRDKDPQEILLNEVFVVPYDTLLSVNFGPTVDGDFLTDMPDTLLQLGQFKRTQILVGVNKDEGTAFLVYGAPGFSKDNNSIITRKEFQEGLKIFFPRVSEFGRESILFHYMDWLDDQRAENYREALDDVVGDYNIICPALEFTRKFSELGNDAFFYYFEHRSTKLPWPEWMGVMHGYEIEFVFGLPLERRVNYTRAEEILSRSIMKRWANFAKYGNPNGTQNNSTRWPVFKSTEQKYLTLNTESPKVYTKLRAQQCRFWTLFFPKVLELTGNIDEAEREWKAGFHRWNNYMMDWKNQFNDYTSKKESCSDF
# experimentDescription: Inhibition of equine serum BuChE at 20 uM using […] as substrate preincubated for 10 mins followed by substrate addition by Ellman's method relative to control
Active and inactive are the calls of the source. The calls are words filed in the database; no cut-off is given here.
quantity: inhibition

# annotated cases, reported inhibition shown
• CCOC(=O)/C(=N\Nc1ccc(OC)cc1)C(=O)C(F)(F)F = 24.3%
• O=[N+]([O-])c1ccc(OP(=O)(O)Oc2ccc([N+](=O)[O-])cc2)cc1 = inactive
• Cc1ccc(N/N=C(\C(=O)c2ccccc2)C(=O)C(F)(F)F)cc1 = 19.4%
• CCOC(=O)/C(=N\Nc1ccc(C)cc1)C(C)=O = inactive
• CC(=O)/C(=N\Nc1ccc(C)cc1)C(=O)C(F)(F)F = 13.4%
• COC(=O)/C(=N\Nc1ccc(OC)cc1)C(=O)C(F)(F)C(F)(F)C(F)(F)F = 21.2%
• COC(=O)/C(=N\Nc1ccc(C)cc1)C(=O)C(F)F = 2.3%
• CCOC(=O)/C(=N\Nc1ccc(C)cc1)C(=O)C(F)F = 12.4%

Consider the additional compound presented here.
Need inhibition, item `CCOC(=O)/C(=N\Nc1ccc(C)cc1)C(=O)C(F)(F)C(F)(F)C(F)(F)C(F)(F)F`
4%

====

Listed here are compounds together with their documented pIC50.
# systemName: UniProtKB P81908
# experimentDescription: Inhibition of equine serum BuChE using […] as substrate preincubated for 10 mins followed by substrate addition by Ellman's method
Recall that pIC50 is obtained by taking minus log10 of the concentration measured in molar.

Recorded pIC50, per entry:
* COC(=O)/C(=N\Nc1ccccc1)C(=O)C(F)(F)F | 4.84
* COC(=O)/C(=N\Nc1ccc(C)cc1)C(=O)C(F)(F)F | 4.48

Look up pIC50: `CCOC(=O)/C(=N\Nc1ccc(Br)cc1)C(=O)C(F)(F)F`
5.69

Same question for `CCOC(=O)/C(=N\Nc1ccccc1[N+](=O)[O-])C(=O)C(F)(F)F` please.
5.09

Ok, now `COC(=O)/C(=N\Nc1ccc(OC)cc1)C(=O)C(F)(F)F`
4.30

Same read-out for `CCOC(=O)/C(=N\Nc1ccc(C(=O)OCC)cc1)C(=O)C(F)(F)F` ?
4.71

Likewise for `CCOC(=O)/C(=N\Nc1ccccc1)C(=O)C(F)(F)F` ?
5.07

Request: `CCOC(=O)/C(=N\Nc1ccc(C)cc1)C(=O)C(F)(F)C(F)(F)F`
4.51

====

# experimentDescription: Acute toxicity in ip dosed CD-1 mouse observed for 14 days
# Assay type: organism-based
# conditionDetails: in vivo, time 14 day
The compounds listed here are annotated with their LD50 at 336 h.
Value expressed in mg/kg; do not type the unit.

// solved cases for LD50 at 336 h follow
* CCOC(=O)/C(=N\Nc1ccccc1)C(=O)C(F)(F)F | 600
* CCOC(=O)/C(=N\Nc1ccc(Br)cc1)C(=O)C(F)(F)F | 300
* CCOC(=O)/C(=N\Nc1ccc(C)cc1)C(=O)C(F)(F)F | 900
* COC(=O)/C(=N\Nc1ccccc1[N+](=O)[O-])C(=O)C(F)(F)F | 300
* CCOC(=O)/C(=N\Nc1ccccc1[N+](=O)[O-])C(=O)C(F)(F)F | 300

As a next step, examine the compound that follows.
Would you kindly share the measured LD50 at 336 h for `CCOC(=O)/C(=N\Nc1cccc(C)c1)C(=O)C(F)(F)F` ?
300
